target: T1, irrelevant human Fc tagged protein; test: BLI Octet, antigen on anti-hFc tips, 100 ug/mL Ab
T1 construct: negative control antigen; also called Irrelevant hFc tagged protein
Property Name: Bound (nm)
Answers are plain numbers, in nm.

Qu. For the binder H4H2294S (antibody, human IgG4, V domains shown, human IgG4 Fc (H4H)) VH: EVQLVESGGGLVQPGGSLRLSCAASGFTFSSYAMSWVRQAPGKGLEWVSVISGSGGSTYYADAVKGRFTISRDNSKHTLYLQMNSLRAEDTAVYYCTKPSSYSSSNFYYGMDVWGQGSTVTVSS VL: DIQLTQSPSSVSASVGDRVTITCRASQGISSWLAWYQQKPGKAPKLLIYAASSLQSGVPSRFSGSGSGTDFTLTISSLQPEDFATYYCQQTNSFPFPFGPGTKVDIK , report Bound (nm).
Ans. 0.03
